These data points were gathered from the supplement of paper PMC8882468.

Tested on: HCI-001 (organoid from a triple-negative breast cancer xenograft)
Test: CTG-3D luminescence at 96 h relative to day-0 seeding control (ratio to day 0); higher = more growth / less cytotoxicity; PDxO 3D drug screen, 96 h, CTG-3D normalised to day-0 seeding control.
Settings: 0.1 µM; days in culture: 269
observation.type: CTG-3D luminescence at 96 h

In [3]: df
Out[3]:
                                smiles_code             observation_type  observed_measurement
0  CCN(c1cc(C#CCN2CCOCC2)cc(C(=O)NCc2c(C)cc(C)[nH]c2=O)c1C)[C@H]1CC[C@H](N(C)CCOC)CC1  CTG-3D luminescence at 96 h                  1.27
1  O=C(c1ccc(F)c(F)c1Nc1ccc(I)cc1F)N1CC(O)([C@@H]2CCCCN2)C1  CTG-3D luminescence at 96 h                  1.49
2  CCc1c2c(nc3ccc(O)cc13)-c1cc3c(c(=O)n1C2)COC(=O)[C@]3(O)CC  CTG-3D luminescence at 96 h                 0.477
3  Cc1nc(-c2cn3c(n2)-c2ccc(-c4cnn(C(C)(C)C(N)=O)c4)cc2OCC3)n(C(C)C)n1  CTG-3D luminescence at 96 h                  1.21
4  CCN1CCN(Cc2ccc(Nc3ncc(F)c(-c4cc(F)c5nc(C)n(C(C)C)c5c4)n3)nc2)CC1  CTG-3D luminescence at 96 h                  1.38
5  O=C(/C=C/c1cccnc1)NCCCCC1CCN(C(=O)c2ccccc2)CC1  CTG-3D luminescence at 96 h                0.0874
6  COc1cccc2c1C(=O)c1c(O)c3c(c(O)c1C2=O)C[C@@](O)(C(=O)CO)C[C@@H]3O[C@H]1C[C@H](N)[C@H](O)[C@H](C)O1  CTG-3D luminescence at 96 h                  1.69
